The measurements presented in this section are drawn from patent US9850257B2.

# test-system: BRD4-BD1 (Homo sapiens (Human), UniProt O60885)
# protocol-text: BRD4 AlphaScreen assay (BD1)
# experimental-setup: biotin-labeled tetra-acetylated histone H4 peptide, 3.8 nM BRD4-BD1, read-out: BRD4 BD-1 enzyme IC50
pIC50: −log10 of the molar value.
measurement-label: pIC50

>>> print(df.to_string())
                                   compound  observed_result
0  COc1nn2c3c(c(-c4c(C)noc4C)ccc13)OCC2c1cccnc1 (stereo not shown)           ≥ 6.70

Query string: Provide BRD4-BD1 (Homo sapiens (Human), UniProt O60885) pIC50 reading for COc1nn2c3c(c(-c4c(C)noc4C)ccc13)OCC2c1ccccn1 (stereo not shown) .
Result string: ≥ 6.70

Query string: Provide BRD4-BD1 (Homo sapiens (Human), UniProt O60885) pIC50 reading for Cc1noc(C)c1-c1ccc2cnn3c2c1OCC3c1ccccc1 (stereo not shown) .
Result string: ≥ 6.70

Query string: Provide BRD4-BD1 (Homo sapiens (Human), UniProt O60885) pIC50 reading for Cc1noc(C)c1-c1ccc2c(=O)[nH]n3c2c1OCC3c1ccccc1 (stereo not shown) .
Result string: ≥ 6.70

Query string: Provide BRD4-BD1 (Homo sapiens (Human), UniProt O60885) pIC50 reading for COc1nn2c3c(c(-c4c(C)noc4C)ccc13)OCC2c1ccccc1 (stereo not shown) .
Result string: ≥ 6.70

Query string: Provide BRD4-BD1 (Homo sapiens (Human), UniProt O60885) pIC50 reading for Cc1noc(C)c1-c1ccc2c(=O)n(C)n3c2c1OCC3c1cccnc1 (stereo not shown) .
Result string: ≥ 6.70
